Attribute: inhibition at 25 µM
- assayed.target: HCMV polymerase (Human cytomegalovirus)
- Construct: made in house; host or cells: SF-9 insect cells infected with recombinant baculovirus
- Sequence (P08546 whole entry): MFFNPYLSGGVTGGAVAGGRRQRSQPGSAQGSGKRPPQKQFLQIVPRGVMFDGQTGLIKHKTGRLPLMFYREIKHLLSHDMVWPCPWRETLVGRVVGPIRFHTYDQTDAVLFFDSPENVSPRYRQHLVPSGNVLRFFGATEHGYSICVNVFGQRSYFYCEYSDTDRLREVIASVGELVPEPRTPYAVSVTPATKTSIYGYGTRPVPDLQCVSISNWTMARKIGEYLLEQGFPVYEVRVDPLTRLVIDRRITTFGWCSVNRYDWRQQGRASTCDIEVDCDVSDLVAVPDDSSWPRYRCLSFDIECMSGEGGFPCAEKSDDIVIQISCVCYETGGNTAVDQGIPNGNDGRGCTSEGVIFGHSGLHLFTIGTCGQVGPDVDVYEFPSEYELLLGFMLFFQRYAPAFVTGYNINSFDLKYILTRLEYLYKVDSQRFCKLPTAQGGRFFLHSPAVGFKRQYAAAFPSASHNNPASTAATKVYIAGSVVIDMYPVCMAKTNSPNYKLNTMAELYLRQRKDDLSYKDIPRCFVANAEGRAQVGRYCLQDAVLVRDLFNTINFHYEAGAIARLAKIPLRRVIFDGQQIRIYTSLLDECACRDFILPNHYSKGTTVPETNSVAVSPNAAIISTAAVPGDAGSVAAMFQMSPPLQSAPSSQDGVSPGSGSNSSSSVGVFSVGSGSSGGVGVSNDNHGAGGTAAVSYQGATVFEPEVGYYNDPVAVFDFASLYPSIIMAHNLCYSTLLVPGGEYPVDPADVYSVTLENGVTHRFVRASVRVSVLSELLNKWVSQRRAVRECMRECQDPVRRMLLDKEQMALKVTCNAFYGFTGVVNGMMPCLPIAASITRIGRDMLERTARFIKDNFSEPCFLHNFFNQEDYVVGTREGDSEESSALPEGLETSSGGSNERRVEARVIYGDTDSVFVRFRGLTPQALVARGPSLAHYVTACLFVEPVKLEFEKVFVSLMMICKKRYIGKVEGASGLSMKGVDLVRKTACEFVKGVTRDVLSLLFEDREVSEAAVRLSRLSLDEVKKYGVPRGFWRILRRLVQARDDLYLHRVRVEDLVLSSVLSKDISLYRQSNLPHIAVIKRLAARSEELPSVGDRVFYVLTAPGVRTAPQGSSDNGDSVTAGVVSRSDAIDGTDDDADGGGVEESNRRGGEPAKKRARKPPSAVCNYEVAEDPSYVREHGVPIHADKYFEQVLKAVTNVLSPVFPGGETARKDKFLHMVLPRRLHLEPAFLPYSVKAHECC
- test.details: HCMV polymerase assay (scintillation proximity assay)
- Assay type: biochemical
- test.conditions: percentage of inhibition at 25 μM concentration in CMV polymerase assay
endpoint: inhibition at 25 µM (%)

>>> readout_value("O=C(Nc1nnc(NCc2cccnc2)s1)c1c(Cl)cccc1Cl")
53.2
>>> readout_value("CCCCCCCCCCCNc1nnc(NC(=O)c2ccc(I)cc2)s1")
54.7
>>> readout_value("O=C(CCCCCl)Nc1nnc(NCc2ccc3c(c2)OCO3)s1")
51.3
>>> readout_value("CC(C)c1cc(C(C)C)c(C(=O)Nc2nnc(NCCN3CCCC3)s2)c(C(C)C)c1")
50.7
>>> readout_value("O=C(/C=C/c1ccccc1Cl)Nc1nnc(NCCSc2ccccc2)s1")
33.2
>>> readout_value("CCCCC(CC)CNc1nnc(NC(=O)c2ccc(Cl)c(Cl)c2)s1 (centres unmarked)")
20.6
>>> readout_value("CC(C)c1cc(C(C)C)c(C(=O)Nc2nnc(NC3CCCCCC3)s2)c(C(C)C)c1")
40.5
>>> readout_value("O=C(CCCCCl)Nc1nnc(NCc2cccc3ccccc23)s1")
45.3
>>> readout_value("CCSCCNc1nnc(NC(=O)/C=C/c2ccccc2)s1")
44.3
>>> readout_value("CCSCCNc1nnc(NC(=O)c2ccc(Cl)c(Cl)c2)s1")
21.6
>>> readout_value("O=C(Nc1nnc(NCc2cccc3ccccc23)s1)c1cc2ccccc2s1")
44.1
>>> readout_value("CCSCCNc1nnc(NC(=O)c2cc3ccccc3s2)s1")
20.1
>>> readout_value("CCCCCCCCCCCNc1nnc(NC(=O)c2ccc(F)cc2F)s1")
60
>>> readout_value("O=C(Nc1nnc(NCCc2cccs2)s1)c1cc2ccccc2s1")
42
>>> readout_value("CCOc1ccc2ccccc2c1C(=O)Nc1nnc(NCCCNC2CCCCC2)s1")
92.9
>>> readout_value("CCOc1ccc2ccccc2c1C(=O)Nc1nnc(NCCNC(C)=O)s1")
20.3
>>> readout_value("CC1(C)C2CC[C@@H](CNc3nnc(NC(=O)c4ccc5c(c4)C(=O)OC5=O)s3)C1C2 (some centres unmarked)")
93.9
>>> readout_value("CC(C)c1cc(C(C)C)c(C(=O)Nc2nnc(NCCN(C)C)s2)c(C(C)C)c1")
21.9
>>> readout_value("O=C(Nc1nnc(NCc2ccncc2)s1)c1cc2ccccc2s1")
43.2
>>> readout_value("O=C(Nc1nnc(NCCc2ccccc2)s1)c1ccc2c(c1)C(=O)OC2=O")
95.6
>>> readout_value("Cc1ccc(C(=O)Nc2nnc(NCC3CCCCC3)s2)cc1")
21.5
>>> readout_value("CC(C)(C)CNc1nnc(NC(=O)c2c(Cl)cccc2Cl)s1")
26.2
>>> readout_value("CCOc1ccc2ccccc2c1C(=O)Nc1nnc(NCCSCC)s1")
33.6
